Values compiled from ChEMBL document CHEMBL4308839.

Biological target: Glutaminase kidney isoform, mitochondrial (Homo sapiens, UniProt O94925)
Sequence (O94925 whole entry, the tested form may be a part, canonical isoform): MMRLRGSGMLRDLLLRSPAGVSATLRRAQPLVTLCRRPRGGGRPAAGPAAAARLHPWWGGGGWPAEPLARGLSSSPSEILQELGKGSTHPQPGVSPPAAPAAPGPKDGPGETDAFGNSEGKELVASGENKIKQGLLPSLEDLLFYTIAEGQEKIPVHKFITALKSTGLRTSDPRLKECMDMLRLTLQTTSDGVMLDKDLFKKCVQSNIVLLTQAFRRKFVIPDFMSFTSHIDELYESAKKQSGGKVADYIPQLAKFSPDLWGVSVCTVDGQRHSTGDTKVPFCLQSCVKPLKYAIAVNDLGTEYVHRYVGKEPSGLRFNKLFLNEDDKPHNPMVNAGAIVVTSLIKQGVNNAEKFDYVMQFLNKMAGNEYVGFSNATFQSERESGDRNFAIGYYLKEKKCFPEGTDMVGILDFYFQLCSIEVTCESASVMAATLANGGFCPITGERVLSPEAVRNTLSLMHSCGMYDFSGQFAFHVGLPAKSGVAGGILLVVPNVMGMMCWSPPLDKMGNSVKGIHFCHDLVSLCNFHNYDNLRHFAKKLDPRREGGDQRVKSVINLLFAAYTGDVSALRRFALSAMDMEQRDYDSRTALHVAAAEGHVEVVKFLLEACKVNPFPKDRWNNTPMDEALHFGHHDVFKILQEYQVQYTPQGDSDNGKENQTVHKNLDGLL
Assay: Inhibition of human KGA (63 to 669 residues) preincubated for 15 mins using 50 mM glutamine as substrate by resorufin dye based assay
Entries and their pIC50 values follow.
pIC50 is defined as minus the log10 of a concentration measured in mol/L.

Below: 2 compounds and their reported pIC50.
// pIC50 lookup, compound = CO[C@H](C(=O)Nc1ccc(N2CC[C@@H](Nc3cccnn3)C2)nn1)c1cccc(OC(F)F)c1 , result: 7.60

// pIC50 lookup, compound = CO[C@H](C(=O)Nc1nnc(N[C@@H]2CCN(c3cc(Cl)cnn3)C2)s1)c1ccccc1 , result: 7.40

Attention now shifts to the item below.
// pIC50 lookup, compound = O=C(Nc1nnc(N[C@@H]2CCN(c3cccnn3)C2)s1)[C@@H](c1cccc(OC(F)(F)F)c1)N1CCC1 , result: 7.00
